test: Clinical pharmacological trial: pharmacokinetics after single-dose edoxaban 15 mg in individuals with renal functional impairment; details: human, in vivo, 15 mg, AUC0-24h Geometric least squares mean, single-dose 15 mg; peritoneal dialysis patient
MEASUREMENT_NAME: AUC(0-t) (ng·h/mL)

CN1CCc2nc(C(=O)N[C@@H]3C[C@@H](C(=O)N(C)C)CC[C@@H]3NC(=O)C(=O)Nc3ccc(Cl)cn3)sc2C1 ... 770

----------
experiment: Clinical pharmacological trial: pharmacokinetics after single-dose edoxaban 15 mg in individuals with renal functional impairment; conditions: human, in vivo, 15 mg, AUC0-24h Geometric least squares mean, single-dose 15 mg; severe renal impairment (CLCR < 30 mL/min, nondialyzed)
MEASUREMENT_NAME: AUC(0-t) (ng·h/mL)

CN1CCc2nc(C(=O)N[C@@H]3C[C@@H](C(=O)N(C)C)CC[C@@H]3NC(=O)C(=O)Nc3ccc(Cl)cn3)sc2C1 [edoxaban] ... 661

Each recorded value in this set is attributed to patent US20140371262A1.
